# Organism: Rattus norvegicus
# assay_remarks: Selectivity ratio of Ki for mu opioid receptor in Sprague-Dawley rat brain to Ki for delta opioid receptor in Sprague-Dawley rat brain
Where a SMILES comes first, the peptide text is derived from it. [ ]: non-standard residue; d: D form. The star is where a group is joined. Dmt = Cc1cc(O)cc(C)c1C[C@H](N)C(=O)O; Tic = O=C(O)[C@@H]1Cc2ccccc2CN1; NHBn = c1ccc(CN*)cc1
reported_property: Ratio Ki

compound	obs_value
Cc1cc(O)cc(C)c1C[C@H](N)C(=O)N1Cc2ccccc2C[C@H]1C(=O)N[C@H](CC(=O)O)C(=O)Nc1ccccc1	129
Cc1cc(O)cc(C)c1C[C@H](N)C(=O)N1Cc2ccccc2C[C@H]1C(=O)NCC(=O)N(C)c1ccccc1	12
Cc1cc(O)cc(C)c1C[C@H](N)C(=O)N1Cc2ccccc2C[C@H]1C(=O)N[C@H](CC(=O)O)C(=O)N(C)c1ccccc1	536
Cc1cc(O)cc(C)c1C[C@H](N)C(=O)N1Cc2ccccc2C[C@H]1C(=O)N[C@@H](CC(=O)O)c1nc2ccccc2n1C	101
Cc1cc(O)cc(C)c1C[C@H](N)C(=O)N1Cc2ccccc2C[C@H]1C(=O)N[C@H](CC(=O)O)c1nc2ccccc2[nH]1	240
Cc1cc(O)cc(C)c1C[C@H](N)C(=O)N1Cc2ccccc2C[C@H]1C(=O)N[C@@H](CC(=O)O)C(=O)N(C)c1ccccc1	1960
Cc1cc(O)cc(C)c1C[C@H](N)C(=O)N1Cc2ccccc2C[C@H]1C(=O)NCC(=O)NCc1ccccc1 (H-[Dmt]-[Tic]-Gly-NHBn)	5

###

# target_of_assay: Delta-type opioid receptor (Rattus norvegicus, UniProt P33533)
# Sequence (P33533 whole entry): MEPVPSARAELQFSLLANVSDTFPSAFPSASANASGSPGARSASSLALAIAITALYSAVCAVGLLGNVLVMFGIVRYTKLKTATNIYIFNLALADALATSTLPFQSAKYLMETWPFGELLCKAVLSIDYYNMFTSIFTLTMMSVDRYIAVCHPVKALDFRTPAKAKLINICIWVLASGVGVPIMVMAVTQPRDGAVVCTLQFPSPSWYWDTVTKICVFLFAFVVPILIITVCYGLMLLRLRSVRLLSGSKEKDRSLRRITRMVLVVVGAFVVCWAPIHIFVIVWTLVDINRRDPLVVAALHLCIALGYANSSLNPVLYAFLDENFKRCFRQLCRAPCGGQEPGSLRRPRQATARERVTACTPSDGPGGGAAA
# assay_remarks: Displacement of [3H]deltorphin2 from delta opioid receptor in Sprague-Dawley rat brain P2 synaptosomal membrane
pKi: −log10 of the molar value. Where a SMILES comes first, the peptide text is derived from it. [ ]: non-standard residue; d: D form. The star is where a group is joined. Dmt = Cc1cc(O)cc(C)c1C[C@H](N)C(=O)O; Tic = O=C(O)[C@@H]1Cc2ccccc2CN1; NHBn = c1ccc(CN*)cc1

molecule	target_of_assay	pKi
Cc1cc(O)cc(C)c1C[C@H](N)C(=O)N1Cc2ccccc2C[C@H]1C(=O)N[C@@H](CC(=O)O)C(=O)Nc1ccccc1	Delta-type opioid receptor (Rattus norvegicus, UniProt P33533)	10.44
Cc1cc(O)cc(C)c1C[C@H](N)C(=O)N1Cc2ccccc2C[C@H]1C(=O)N[C@H](CC(=O)O)c1nc2ccccc2n1C	Delta-type opioid receptor (Rattus norvegicus, UniProt P33533)	10.15
Cc1cc(O)cc(C)c1C[C@H](N)C(=O)N1Cc2ccccc2C[C@H]1C(=O)N[C@H](CC(=O)O)C(=O)N(C)c1ccccc1	Delta-type opioid receptor (Rattus norvegicus, UniProt P33533)	10.08
Cc1cc(O)cc(C)c1C[C@H](N)C(=O)N1Cc2ccccc2C[C@H]1C(=O)N[C@@H](CC(=O)O)C(=O)NCc1ccccc1 (H-[Dmt]-[Tic]-Asp-NHBn)	Delta-type opioid receptor (Rattus norvegicus, UniProt P33533)	10.27
Cc1cc(O)cc(C)c1C[C@H](N)C(=O)N1Cc2ccccc2C[C@H]1C(=O)N[C@H](CC(=O)O)c1nc2ccccc2[nH]1	Delta-type opioid receptor (Rattus norvegicus, UniProt P33533)	10.17

###

Where a SMILES comes first, the peptide text is derived from it. [ ]: non-standard residue; d: D form. The star is where a group is joined. Dmt = Cc1cc(O)cc(C)c1C[C@H](N)C(=O)O; Tic = O=C(O)[C@@H]1Cc2ccccc2CN1; NHBn = c1ccc(CN*)cc1
In what follows, each item is paired with its log10(Ki) for Mu-type opioid receptor (Rattus norvegicus, UniProt P33535).
reported_property: log10(Ki) (log10 of the value in nM)

molecule	target_of_assay	obs_value
Cc1cc(O)cc(C)c1C[C@H](N)C(=O)N1Cc2ccccc2C[C@H]1C(=O)N[C@@H](CC(=O)O)C(=O)N(C)c1ccccc1	Mu-type opioid receptor (Rattus norvegicus, UniProt P33535)	2.56
Cc1cc(O)cc(C)c1C[C@H](N)C(=O)N1Cc2ccccc2C[C@H]1C(=O)N[C@H](CC(=O)O)C(=O)N(C)c1ccccc1	Mu-type opioid receptor (Rattus norvegicus, UniProt P33535)	1.65
Cc1cc(O)cc(C)c1C[C@H](N)C(=O)N1Cc2ccccc2C[C@H]1C(=O)N[C@H](CC(=O)O)c1nc2ccccc2[nH]1	Mu-type opioid receptor (Rattus norvegicus, UniProt P33535)	1.21
Cc1cc(O)cc(C)c1C[C@H](N)C(=O)N1Cc2ccccc2C[C@H]1C(=O)N[C@@H](CC(=O)O)C(=O)NCc1ccccc1 (H-[Dmt]-[Tic]-Asp-NHBn)	Mu-type opioid receptor (Rattus norvegicus, UniProt P33535)	2.49
Cc1cc(O)cc(C)c1C[C@H](N)C(=O)N1Cc2ccccc2C[C@H]1C(=O)N[C@H](CC(=O)O)C(=O)Nc1ccccc1	Mu-type opioid receptor (Rattus norvegicus, UniProt P33535)	0.87
Cc1cc(O)cc(C)c1C[C@H](N)C(=O)N1Cc2ccccc2C[C@H]1C(=O)NCC(=O)N(C)c1ccccc1	Mu-type opioid receptor (Rattus norvegicus, UniProt P33535)	0.24
Cc1cc(O)cc(C)c1C[C@H](N)C(=O)N1Cc2ccccc2C[C@H]1C(=O)N[C@H](CC(=O)O)c1nc2ccccc2n1C	Mu-type opioid receptor (Rattus norvegicus, UniProt P33535)	1.07
Cc1cc(O)cc(C)c1C[C@H](N)C(=O)N1Cc2ccccc2C[C@H]1C(=O)N[C@@H](CC(=O)O)c1nc2ccccc2n1C	Mu-type opioid receptor (Rattus norvegicus, UniProt P33535)	0.77
Cc1cc(O)cc(C)c1C[C@H](N)C(=O)N1Cc2ccccc2C[C@H]1C(=O)N[C@@H](CC(=O)O)C(=O)Nc1ccccc1	Mu-type opioid receptor (Rattus norvegicus, UniProt P33535)	1.03

###

Recorded measurements of Kb, one per entry
# target_of_assay: Delta-type opioid receptor (Mus musculus)
# assay_remarks: Antagonist activity at delta opioid receptor in mouse vas deferens assessed as effect on deltorphin 2-induced response
# Format: functional, tissue-based
# reported_conditions: read-out: pA2 (converted)
reported_property: Kb

Cc1cc(O)cc(C)c1C[C@H](N)C(=O)N1Cc2ccccc2C[C@H]1C(=O)N[C@@H](CC(=O)O)C(=O)N(C)c1ccccc1 1.78 nM
Cc1cc(O)cc(C)c1C[C@H](N)C(=O)N1Cc2ccccc2C[C@H]1C(=O)N[C@H](CC(=O)O)c1nc2ccccc2n1C 0.224 nM
Cc1cc(O)cc(C)c1C[C@H](N)C(=O)N1Cc2ccccc2C[C@H]1C(=O)N[C@H](CC(=O)O)C(=O)N(C)c1ccccc1 8.71 nM
Cc1cc(O)cc(C)c1C[C@H](N)C(=O)N1Cc2ccccc2C[C@H]1C(=O)N[C@@H](CC(=O)O)c1nc2ccccc2n1C 0.126 nM
Cc1cc(O)cc(C)c1C[C@H](N)C(=O)N1Cc2ccccc2C[C@H]1C(=O)N[C@@H](CC(=O)O)c1nc2ccccc2[nH]1 0.126 nM

###

# target_of_assay: Delta-type opioid receptor (Mus musculus, UniProt P32300)
# Sequence (P32300 whole entry): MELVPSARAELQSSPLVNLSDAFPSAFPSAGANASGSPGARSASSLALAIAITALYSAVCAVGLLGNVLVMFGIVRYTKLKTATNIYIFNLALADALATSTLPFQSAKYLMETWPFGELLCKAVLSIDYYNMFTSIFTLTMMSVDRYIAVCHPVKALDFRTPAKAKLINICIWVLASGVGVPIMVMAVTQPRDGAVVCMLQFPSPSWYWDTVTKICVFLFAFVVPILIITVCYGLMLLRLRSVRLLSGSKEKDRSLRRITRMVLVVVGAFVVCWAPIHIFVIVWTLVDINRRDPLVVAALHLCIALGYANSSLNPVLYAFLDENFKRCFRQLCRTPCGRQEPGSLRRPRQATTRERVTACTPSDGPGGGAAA
# assay_remarks: Antagonist activity at delta opioid receptor in mouse vas deferens assessed as effect on deltorphin 2-induced response
# Assay type: functional, tissue-based
# reported_conditions: read-out: pA2 (converted)
Where a SMILES comes first, the peptide text is derived from it. [ ]: non-standard residue; d: D form. The star is where a group is joined. Dmt = Cc1cc(O)cc(C)c1C[C@H](N)C(=O)O; Tic = O=C(O)[C@@H]1Cc2ccccc2CN1; NHBn = c1ccc(CN*)cc1
Recorded measurements of Kb, one per entry

compound	Kb
Cc1cc(O)cc(C)c1C[C@H](N)C(=O)N1Cc2ccccc2C[C@H]1C(=O)N[C@H](CC(=O)O)C(=O)Nc1ccccc1	2.4 nM
Cc1cc(O)cc(C)c1C[C@H](N)C(=O)N1Cc2ccccc2C[C@H]1C(=O)N[C@@H](CC(=O)O)C(=O)Nc1ccccc1	0.398 nM
Cc1cc(O)cc(C)c1C[C@H](N)C(=O)N1Cc2ccccc2C[C@H]1C(=O)NCC(=O)N(C)c1ccccc1	1.58 nM
Cc1cc(O)cc(C)c1C[C@H](N)C(=O)N1Cc2ccccc2C[C@H]1C(=O)N[C@@H](CC(=O)O)C(=O)NCc1ccccc1 (H-[Dmt]-[Tic]-Asp-NHBn)	2.95 nM

###

Recorded measurements of Ki, one per entry
# target_of_assay: Delta-type opioid receptor (Rattus norvegicus, UniProt P33533)
# assay_remarks: Displacement of [3H]deltorphin2 from delta opioid receptor in Sprague-Dawley rat brain P2 synaptosomal membrane
reported_property: Ki

Cc1cc(O)cc(C)c1C[C@H](N)C(=O)N1Cc2ccccc2C[C@H]1C(=O)NCC(=O)N(C)c1ccccc1 0.143 nM
Cc1cc(O)cc(C)c1C[C@H](N)C(=O)N1Cc2ccccc2C[C@H]1C(=O)N[C@@H](CC(=O)O)C(=O)N(C)c1ccccc1 0.186 nM
Cc1cc(O)cc(C)c1C[C@H](N)C(=O)N1Cc2ccccc2C[C@H]1C(=O)N[C@H](CC(=O)O)C(=O)Nc1ccccc1 0.058 nM
Cc1cc(O)cc(C)c1C[C@H](N)C(=O)N1Cc2ccccc2C[C@H]1C(=O)N[C@@H](CC(=O)O)c1nc2ccccc2n1C 0.059 nM
